test: in vivo; conditions: rat, iv
measurementKind: selectivity ratio

Given the compound CC(C)C(C#N)(CCCNCCc1ccccc1)c1ccccc1.Cl (stereo not shown) [Noremopamil] , what is its reported selectivity ratio?
6.9

###

experiment: in vitro; settings: rat, aortic strip
Reported selectivity ratio by item:

1) CC(C)C(C#N)(CCCNCCc1ccccc1)c1ccccc1.Cl (stereo not shown)	4.6
2) COc1ccc(CCN(C)CCCC(C#N)(c2cc(OC)c(OC)c(OC)c2)C(C)C)cc1OC (single isomer, unassigned; (+)) [(+)-Gallopamil]	21.6
3) CC(C)[C@@](C#N)(CCCN(C)CCc1ccccc1)c1ccccc1	13.5

Here is another compound to look at.
Given the compound COc1ccc(CCN(C)CCC[C@](C#N)(c2ccc(OC)c(OC)c2)C(C)C)cc1OC [R-Verapamil, reference compound] , what is its reported selectivity ratio?
10.2
